- REPORTED_CONDITIONS: buffer, pH 2
MEASURED_PARAMETER: log K
Lab note: jot the number down without any unit.

log K lookup needed for NCCc1c[nH]c2ccc(O)cc12 [SEROTONIN] , thanks.
1.19

Consider next the molecule CCCNC(C)C(=O)Nc1ccccc1C (stereo not drawn) [PRILOCAINE] in the same way.
0.93

Consider next the molecule CCCCN [BUTYLAMINE] in the same way.
0.756
